Provide the reported Cell line selectivity: EC50 (AT1 KO)/EC50 (WT) of each item.
system: T. brucei AT1 KO; experiment: 96-well manual assay on AT1 double knock out T. brucei (P2 transporter knock out); assay type: cell-based, Trypanosoma brucei; conditions: manual assay
Answers are plain numbers.

{"COMPOUND": "COc1ccc(-n2cc(C3(O)C=CC(=O)C=C3)nn2)cc1 [Compound 8]", "SYSTEM_TESTED": "T. brucei AT1 KO", "QUANTITATIVE_RESULT": 0.78}
{"COMPOUND": "N=C(N)c1ccc(-n2cc(C3(O)C=CC(=O)C=C3)nn2)cc1 [Compound 35]", "SYSTEM_TESTED": "T. brucei AT1 KO", "QUANTITATIVE_RESULT": 1.2}
{"COMPOUND": "Nc1nc(N)nc(-n2cc(C3(O)C=CC(=O)C=C3)nn2)n1 [Compound 38]", "SYSTEM_TESTED": "T. brucei AT1 KO", "QUANTITATIVE_RESULT": 1.0}

Next compound, Cell line selectivity: EC50 (AT1 KO)/EC50 (WT) to be filled in.
Form: compound = Nc1nc(N)nc(NCCCOC(=O)CCc2ccc(S(=O)(=O)n3c(C4(O)C=CC(=O)C=C4)cc4ccccc43)cc2)n1 [Compound 44] ; Cell line selectivity: EC50 (AT1 KO)/EC50 (WT) = 1.0
